Origin of the recorded values: the supplement of paper PMC8728848

# target_entity: Fuc(a1-2)Gal(b1-3)GalNAc(b1-3)Gal(a1-4)Gal(b1-4)Glc
# test_method_notes: glycan array binding signal (z-score within array); higher = stronger binding
# condition_parameters: glycan notation: IUPAC condensed, linker removed
About 410 targets per protein were measured; listed, in parts, are those with the strongest signals and a random draw of the rest.
measurement_label: glycan array binding signal (z-score)

binder: SBD-G4S3-Fc (protein) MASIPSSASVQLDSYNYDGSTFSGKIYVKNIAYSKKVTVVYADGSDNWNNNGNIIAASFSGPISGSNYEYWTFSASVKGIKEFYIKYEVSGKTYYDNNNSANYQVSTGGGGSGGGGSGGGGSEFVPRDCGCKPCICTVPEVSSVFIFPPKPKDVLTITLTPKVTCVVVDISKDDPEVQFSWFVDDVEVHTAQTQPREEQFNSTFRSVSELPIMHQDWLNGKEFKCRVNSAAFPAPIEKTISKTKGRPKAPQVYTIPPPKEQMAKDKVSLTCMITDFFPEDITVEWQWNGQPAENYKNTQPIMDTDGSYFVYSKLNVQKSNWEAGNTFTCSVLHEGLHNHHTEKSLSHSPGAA
measurement_label: glycan array binding signal (z-score)
observed_result: -0.249
--
binder: TAL6-4LysM (Trichoderma atroviride) (protein) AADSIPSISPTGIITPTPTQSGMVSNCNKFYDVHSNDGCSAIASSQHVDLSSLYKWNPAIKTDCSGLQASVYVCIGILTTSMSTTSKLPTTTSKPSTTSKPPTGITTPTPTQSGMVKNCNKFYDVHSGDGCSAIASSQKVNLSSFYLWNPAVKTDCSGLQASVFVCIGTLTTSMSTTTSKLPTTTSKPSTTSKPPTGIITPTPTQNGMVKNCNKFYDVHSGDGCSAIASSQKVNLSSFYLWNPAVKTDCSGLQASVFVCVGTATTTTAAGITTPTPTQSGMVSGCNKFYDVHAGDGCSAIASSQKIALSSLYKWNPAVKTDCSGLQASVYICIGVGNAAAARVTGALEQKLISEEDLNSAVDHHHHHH
measurement_label: glycan array binding signal (z-score)
observed_result: -1.13
--
binder: DC SIGN CRD (Homo sapiens), Q9NNX6 (protein) QPCPWEWTFFQGNCYFMSNSQRNWHDSITACKEVGAQLVVIKSAEEQNFLQLQSSRSNRFTWMGLSDLNQEGTWQWVDGSPLLPSFKQYWNRGEPNNVGEEDCAEFSGNGWNDDKCNLAKFWICKKSAWSHPQFEK
measurement_label: glycan array binding signal (z-score)
observed_result: -0.37
--
binder: RNase 1 (Homo sapiens) (protein) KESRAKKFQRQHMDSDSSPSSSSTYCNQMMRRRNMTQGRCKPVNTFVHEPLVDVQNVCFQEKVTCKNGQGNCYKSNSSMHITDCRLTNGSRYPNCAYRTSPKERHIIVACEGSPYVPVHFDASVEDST
measurement_label: glycan array binding signal (z-score)
observed_result: 1.93
--
binder: BTL (Bryothamnion triquetrum) (protein) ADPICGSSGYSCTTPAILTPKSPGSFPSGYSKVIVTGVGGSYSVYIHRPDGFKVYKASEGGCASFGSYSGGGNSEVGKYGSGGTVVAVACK
measurement_label: glycan array binding signal (z-score)
observed_result: -0.262
--
binder: RNase 1 (Bos taurus), P61823 (protein) MALKSLVLLSLLVLVLLLVRVQPSLGKETAAAKFERQHMDSSTSAASSSNYCNQMMKSRNLTKDRCKPVNTFVHESLADVQAVCSQKNVACKNGQTNCYQSYSTMSITDCRETGSSKYPNCAYKTTQANKHIIVACEGNPYVPVHFDASV
measurement_label: glycan array binding signal (z-score)
observed_result: 1.93
--
binder: Gal 8 (Homo sapiens), O00214 (protein) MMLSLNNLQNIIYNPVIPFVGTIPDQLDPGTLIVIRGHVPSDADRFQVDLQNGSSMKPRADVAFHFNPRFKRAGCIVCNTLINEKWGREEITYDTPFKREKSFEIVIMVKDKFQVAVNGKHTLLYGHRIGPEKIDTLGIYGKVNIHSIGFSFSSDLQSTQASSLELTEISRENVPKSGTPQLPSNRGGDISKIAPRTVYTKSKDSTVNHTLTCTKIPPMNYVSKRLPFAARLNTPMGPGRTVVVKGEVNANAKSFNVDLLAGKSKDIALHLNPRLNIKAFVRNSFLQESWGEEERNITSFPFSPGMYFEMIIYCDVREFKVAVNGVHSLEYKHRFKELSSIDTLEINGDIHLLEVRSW
measurement_label: glycan array binding signal (z-score)
observed_result: -0.141
--
binder: LecRKVI.2 (protein) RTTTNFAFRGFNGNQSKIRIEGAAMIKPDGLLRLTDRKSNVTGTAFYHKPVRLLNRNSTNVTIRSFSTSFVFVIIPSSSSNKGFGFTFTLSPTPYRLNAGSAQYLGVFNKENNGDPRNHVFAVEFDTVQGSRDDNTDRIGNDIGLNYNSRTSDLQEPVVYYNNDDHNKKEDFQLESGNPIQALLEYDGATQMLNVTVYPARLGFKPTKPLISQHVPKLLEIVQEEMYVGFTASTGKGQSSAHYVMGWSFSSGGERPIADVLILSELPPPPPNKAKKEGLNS
measurement_label: glycan array binding signal (z-score)
observed_result: -0.133
--
binder: Intelectin 1 (Homo sapiens), Q8WWA0 (protein) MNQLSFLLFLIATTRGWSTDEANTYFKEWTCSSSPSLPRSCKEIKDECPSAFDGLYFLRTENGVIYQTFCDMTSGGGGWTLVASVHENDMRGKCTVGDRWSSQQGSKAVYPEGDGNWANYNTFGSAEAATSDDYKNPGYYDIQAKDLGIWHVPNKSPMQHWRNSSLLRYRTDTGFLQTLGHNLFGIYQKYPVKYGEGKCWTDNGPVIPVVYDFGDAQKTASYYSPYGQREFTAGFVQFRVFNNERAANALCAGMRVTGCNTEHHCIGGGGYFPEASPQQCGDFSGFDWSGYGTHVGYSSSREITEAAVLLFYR
measurement_label: glycan array binding signal (z-score)
observed_result: 0.742
--
binder: CALR truncated at D342 (Homo sapiens) (protein) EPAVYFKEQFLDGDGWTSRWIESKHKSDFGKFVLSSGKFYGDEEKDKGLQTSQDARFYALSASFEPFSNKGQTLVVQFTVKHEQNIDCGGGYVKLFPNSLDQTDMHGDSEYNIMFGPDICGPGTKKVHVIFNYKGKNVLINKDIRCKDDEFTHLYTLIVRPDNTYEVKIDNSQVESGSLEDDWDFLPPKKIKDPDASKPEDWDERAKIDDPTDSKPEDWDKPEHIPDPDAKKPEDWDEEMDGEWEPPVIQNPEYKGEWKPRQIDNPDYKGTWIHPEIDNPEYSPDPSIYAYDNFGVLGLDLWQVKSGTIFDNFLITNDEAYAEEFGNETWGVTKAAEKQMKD
measurement_label: glycan array binding signal (z-score)
observed_result: -0.373
